Target: T1, CD81 (UniProt P60033 1-236, limits assumed)
T1 construct: whole, on cells; also called CD81 receptor
T1 sequence (looked up): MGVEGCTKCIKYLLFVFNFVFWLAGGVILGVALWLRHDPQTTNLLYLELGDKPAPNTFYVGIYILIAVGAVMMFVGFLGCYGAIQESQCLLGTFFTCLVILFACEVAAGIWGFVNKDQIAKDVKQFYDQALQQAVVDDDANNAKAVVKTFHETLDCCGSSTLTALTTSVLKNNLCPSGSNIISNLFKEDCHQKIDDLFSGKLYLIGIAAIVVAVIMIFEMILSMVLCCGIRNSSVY
Assay: cell ELISA;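 also: antibody binding to HuH7 cells expressing CD81 versus a CD81-negative HuH7 control line, bound antibody detected by secondary reagent, absorbance at 450 nm with 620 nm reference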
# reported ELISA data; entries follow

Below, each entry is followed by its recorded ELISA data result.
[[record]]
binder = "CD81K13 HC 06-hVH_1_3 / LC 1b-hVK_3_15 (antibody, V domains shown, human constant region) VH: QVQLVQSGAEVKKPGASVKVSCKASGYTFKDSYLHWVRQAPGQRLEWMGRIDTGNGNVKFDPKFQGRVTITTDTSASTAYMELSSLRSEDTAVYYCAPYGYGFHSWGQGTLVTVSS VL: EIVMTQSPATLSVSPGERATLSCRASENIYRTLAWYQQKPGQAPRLLIYGATTLADGIPARFSGSGSGTEFTLTISSLQSEDFAVYYCQHFWGTPWTFGQGTKVEIK"
reported = 0.394

[[record]]
binder = "CD81K13 HC 5b-hVH_1_69 / LC 01-hVK_3_15 (antibody, V domains shown, human constant region) VH: QVQLVQSGAELVKPGSSVKVSCKASGFNFKDSYLHWVRQAPGQGLEWMGRIDTGNGNVKFDPKFQGRVTITTDESTSTAYMELSSLRSEDTAVYYCVPYGYGFHSWGQGTLVTVSS VL: EIVMTQSPATLSVSPGERATLSCRASENIYRTLAWYQQKPGQAPRLLIYGATTRATGIPARFSGSGSGTEFTLTISSLQSEDFGVYYCQHFWGTPWTFGQGTKVEIK"
reported = 0.749

[[record]]
binder = "CD81K13 HC 06-hVH_1_3 / LC 1c-hVK_3_15 (antibody, V domains shown, human constant region) VH: QVQLVQSGAEVKKPGASVKVSCKASGYTFKDSYLHWVRQAPGQRLEWMGRIDTGNGNVKFDPKFQGRVTITTDTSASTAYMELSSLRSEDTAVYYCAPYGYGFHSWGQGTLVTVSS VL: EIVMTQSPATLSVSPGERATLSCRASENIYRTLAWYQQKPGQAPRLLIYGATTLADGIPARFSGSGSGTEFTLTISSLQSEDFGVYYCQHFWGTPWTFGQGTKVEIK"
reported = 0.34

[[record]]
binder = "CD81K13 HC 03-hVH_1_69 / LC 05-hVK_1_39 (antibody, V domains shown, human constant region) VH: QVQLVQSGAEVKKPGSSVKVSCKASGFNFKDSYLHWVRQAPGQGLEWMGRIDTGNGNVKYAQKFQGRVTITADESTSTAYMELSSLRSEDTAVYYCAPYGYGFHSWGQGTLVTVSS VL: DIQMTQSPSSLSASVGDRVTITCRASENIYRTLAWYQQKPGKAPKLLIYAATTLASGVPSRFSGSGSGTDFTLTISSLQPEDFATYYCQHFWGTPWTFGQGTKVEIK"
reported = 0.525

[[record]]
binder = "CD81K13 HC 03-hVH_1_69 / LC 04-hVK_1_9 (antibody, V domains shown, human constant region) VH: QVQLVQSGAEVKKPGSSVKVSCKASGFNFKDSYLHWVRQAPGQGLEWMGRIDTGNGNVKYAQKFQGRVTITADESTSTAYMELSSLRSEDTAVYYCAPYGYGFHSWGQGTLVTVSS VL: DIQLTQSPSFLSASVGDRVTITCRASENIYRTLAWYQQKPGKAPKLLIYAATTLASGVPSRFSGSGSGTEFTLTISSLQPEDFGTYYCQHFWGTPWTFGQGTKVEIK"
reported = 0.188


Q: I would be grateful if you could share the reported ELISA data for CD81K13 HC 04-hVH_1_69 / LC 05-hVK_1_39 (antibody, V domains shown, human constant region) VH: EVQLVESGGGLVQPGRSLRLSCTASGFNFKDSYLHWVRQAPGQGLEWMGRIDTGNGNVKFDPKFQGRVTITADESTSTAYMELSSLRSEDTAVYYCVPYGYGFHSWGQGTLVTVSS VL: DIQMTQSPSSLSASVGDRVTITCRASENIYRTLAWYQQKPGKAPKLLIYAATTLASGVPSRFSGSGSGTDFTLTISSLQPEDFATYYCQHFWGTPWTFGQGTKVEIK .
Ans: 0.776

Q: Try the binder CD81K13 HC 02-hVH_1_3 / LC 05-hVK_1_39 (antibody, V domains shown, human constant region) VH: QVQLVQSGAEVKKPGASVKVSCKASGYTFTDSYMHWVRQAPGQRLEWMGRIDTGNGNTKYSQKFQGRVTITTDTSASTAYMELSSLRSEDTAVYYCAPYGYGFHSWGQGTLVTVSS VL: DIQMTQSPSSLSASVGDRVTITCRASENIYRTLAWYQQKPGKAPKLLIYAATTLASGVPSRFSGSGSGTDFTLTISSLQPEDFATYYCQHFWGTPWTFGQGTKVEIK
Ans: 0.161

Q: Try the binder CD81K13 HC 04-hVH_1_69 / LC 03-hVK_1_9 (antibody, V domains shown, human constant region) VH: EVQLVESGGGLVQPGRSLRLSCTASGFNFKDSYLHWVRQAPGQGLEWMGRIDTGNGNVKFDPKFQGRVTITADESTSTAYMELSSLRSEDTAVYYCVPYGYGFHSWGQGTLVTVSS VL: DIQLTQSPSFLSASVGDRVTITCRASENIYRTLAWYQQKPGKAPKLLIYAATTLASGVPSRFSGSGSGTEFTLTISSLQPEDFATYYCQHFWGTPWTFGQGTKVEIK
Ans: 0.52

Q: Try the binder CD81K13 HC CD81K13 / LC 04-hVK_1_9 (antibody, V domains shown, human constant region) VH: EVRLHQSAAQLVQPGASVRLSCTTSGFNFKDSYLHWVKQRPAQGLEWIGRIDTGNGNVKFDPKFQDKATITTDIPSMTAYLHLSNLTSEDTAVYYCVPYGYGFHSWGDGTTLTVSS VL: DIQLTQSPSFLSASVGDRVTITCRASENIYRTLAWYQQKPGKAPKLLIYAATTLASGVPSRFSGSGSGTEFTLTISSLQPEDFGTYYCQHFWGTPWTFGQGTKVEIK
Ans: 0.851

Q: Try the binder CD81K13 HC 04-hVH_1_69 / LC 5b-hVK_1_39-GA (antibody, V domains shown, human constant region) VH: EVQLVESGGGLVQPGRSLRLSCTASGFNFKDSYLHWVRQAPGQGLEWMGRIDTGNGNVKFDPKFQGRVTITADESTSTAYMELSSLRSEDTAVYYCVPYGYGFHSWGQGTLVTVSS VL: DIQMTQSPSSLSASVGDRVTITCRASENIYRTLAWYQQKPGKAPKLLIYGATTLADGVPSRFSGSGSGTDFTLTISSLQPEDFATYYCQHFWGTPWTFGQGTKVEIK
Ans: 0.403

Taken from patent US20200377590A1.
